Data provenance: patent US20080050810A1

system: TAG-72 positive bovine submaxillary mucin (BSM) (bovine)
protocol-summary: relative affinity constant from competition RIA on BSM
measurement-kind: Ka (M⁻¹)

INSERT INTO results (binder, measurement_kind, units_label, value_observed) VALUES
  ('HuCC49 variant ^97L1,2 (antibody, V domains shown) VH: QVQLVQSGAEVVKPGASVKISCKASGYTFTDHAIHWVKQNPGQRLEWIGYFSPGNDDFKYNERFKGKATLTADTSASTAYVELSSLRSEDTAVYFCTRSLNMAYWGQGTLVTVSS VL: DIVMSQSPDSLAVSLGERVTLNCKSSQSVLYSSNSKNYLAWYQQKPGQSPKLLIYWASTRESGVPDRFSGSGSGTDFTLTISSVQAEDVAVYYCQQYYSYPLSFGAGTKLELK', 'Ka', 'M⁻¹', '1.4e+08'),
  ('HuCC49 variant MAb ^97L/^60-62,64H (antibody, V domains shown) VH: QVQLVQSGAEVVKPGASVKISCKASGYTFTDHAIHWVKQNPGQRLEWIGYFSPGNDDFKYSQKFQGKATLTADTSASTAYVELSSLRSEDTAVYFCTRSLNMAYWGQGTLVTVSS VL: DIVMSQSPDSLAVSLGERVTLNCKSSQSLLYSGNQKNYLAWYQQKPGQSPKLLIYWASARESGVPDRFSGSGSGTDFTLTISSVQAEDVAVYYCQQYYSYPLSFGAGTKLELK', 'Ka', 'M⁻¹', '5.48e+08');
